Reference for the values: ChEMBL document CHEMBL3507680

- assay method text: Human HepG2 cell viability assay in 384 well format
- Format: toxicity, cell-based
- Set-up: dose 125 nL, time 70.5 hour; concentration not given beside the values
- experimental conditions: HepG2 cells, read-out: Inhibition
Recorded cytotoxicity at 70.5 h by entry
Field: numeric (%). Do not append units.

>  <molecule>
CC1c2ncc(CNC(=O)C3CC3)n2CCN1Cc1nccs1 (configuration not stated)

>  <cytotoxicity at 70.5 h / %>
-7.88

$$$$
>  <molecule>
Nc1ccnn1C1CCN(Cc2ccccc2)C1 (configuration not stated)

>  <cytotoxicity at 70.5 h / %>
2.28

$$$$
>  <molecule>
Cc1c(C(=O)NCC(C)C)nnn1-c1cccc2c1CCN(CCO)C2

>  <cytotoxicity at 70.5 h / %>
-2.54

$$$$
>  <molecule>
Cc1ccc(CN2CC3(CCN(C(=O)c4cccnc4)C3)C2)o1

>  <cytotoxicity at 70.5 h / %>
3.03

$$$$
>  <molecule>
CN1C[C@@H]2CN(C(=O)NCc3cccc(F)c3)CCC[C@]2(C(=O)O)C1

>  <cytotoxicity at 70.5 h / %>
8.66

$$$$
>  <molecule>
Cc1nn(C)c(C)c1-c1nccnc1CC1CCNCC1

>  <cytotoxicity at 70.5 h / %>
-1.07

$$$$

Please fill in: cytotoxicity at 70.5 h reported for `CC(C)c1ccc(-c2nonc2N)cc1` = 1.97

Please fill in: cytotoxicity at 70.5 h reported for `O=C(c1cccc(S(=O)(=O)NCCCn2cccn2)c1)N1CCOCC1` = -1.43

Please fill in: cytotoxicity at 70.5 h reported for `CC(C)Nc1nc2c(cc1C(=O)NCC1CC1)CCN(C)CC2` = -8.36

Please fill in: cytotoxicity at 70.5 h reported for `CCn1cnnc1CNC(=O)N1CCN(c2ccc(OC)cc2)CC1` = -11.7

Please fill in: cytotoxicity at 70.5 h reported for Cn1nnc2c1CCN(Cc1ccncc1)C2COCC1CC1 (configuration not stated) = -9.81

Please fill in: cytotoxicity at 70.5 h reported for `COc1ccc(CCN(C)CCS(=O)(=O)c2ccc(Cl)cc2)cc1OC` = -13.8

====

Recorded cytotoxicity at 70.5 h by entry
- assay method text: Human HepG2 cell viability assay in 384 well format
- Assay type: toxicity, cell-based
- Set-up: dose 125 nL, time 70.5 hour; concentration not given beside the values
- experimental conditions: HepG2 cells, read-out: Inhibition
Field: numeric (%). Do not append units.

>  <compound>
CN(CC1CCCCO1)c1nncc(-c2cccc(F)c2)n1 (configuration not stated)

>  <cytotoxicity at 70.5 h [%]>
-3.62

$$$$

Please fill in: cytotoxicity at 70.5 h reported for `C=C(C)COc1cccc(C(=O)N2CCC3(CC2)CN(C)CCN3C)c1` = -7.19

====

- assay method text: Human HepG2 cell viability assay in 384 well format
- Assay type: toxicity, cell-based
- Set-up: dose 125 nL, time 70.5 hour; concentration not given beside the values
- experimental conditions: HepG2 cells, read-out: Inhibition
Recorded cytotoxicity at 70.5 h by entry
Field: numeric (%). Do not append units.

>  <molecule>
Fc1cccc(N2C[C@H]3CCN(c4cccnc4)C[C@H]3C2)c1

>  <unit>
%

>  <cytotoxicity at 70.5 h>
-5.68

$$$$
>  <molecule>
Cc1nc(S(=O)(=O)N2CCC3(CCCCC3)C2)cn1C

>  <unit>
%

>  <cytotoxicity at 70.5 h>
-1.45

$$$$
>  <molecule>
COCCNC(=O)[C@@]12CCO[C@@H]1CCN(Cc1cc(C)on1)C2

>  <unit>
%

>  <cytotoxicity at 70.5 h>
7.02

$$$$
>  <molecule>
CNc1nc(C(=O)N2CCC3(CCCN(C)C3=O)C2)cs1 (stereo unspecified)

>  <unit>
%

>  <cytotoxicity at 70.5 h>
-4.39

$$$$
>  <molecule>
CN(C)c1ccc(CNC(=O)NCCc2ccccn2)cn1

>  <unit>
%

>  <cytotoxicity at 70.5 h>
-12.8

$$$$

Please fill in: cytotoxicity at 70.5 h reported for CC(=O)N1CCN(C2CCc3ccccc32)CC1 (stereo unspecified) = -2.55

Please fill in: cytotoxicity at 70.5 h reported for COCC1COCCC12CCN(C(=O)CC1Cc3ccccc3C1)CC2 (stereo unspecified) = 0.913

Please fill in: cytotoxicity at 70.5 h reported for O=C(c1cn2cc(Cl)cnc2n1)N1CCOCC(O)(CN2CCCC2)C1 (stereo unspecified) = -1.97

Please fill in: cytotoxicity at 70.5 h reported for `CCN(C(=O)c1ccc(-n2ncc(C#N)c2N)cc1)C1CCCC1` = -12.1

Please fill in: cytotoxicity at 70.5 h reported for COCCN1C(=O)CCC12CCCN(Cc1ccccc1F)C2 (stereo unspecified) = 31.9

Please fill in: cytotoxicity at 70.5 h reported for `c1cc(-c2nnc3sc(CCN4CCCC4)nn23)ccn1` = -9.13
